- Test system: SF-268
- protocol.notes: NCI tumour cell line growth inhibition, 48 h
Calls of active or inactive are those of the source. No stated cut-off is given here; in the data, active = GI50 up to about 1.1 µM and inactive = higher.
test.readout: GI50

Answered cases to consult:
Ask: Let me know recorded GI50 for CCCC(C(=O)OC)C1N/C(=N/C#N)N(Cc2ccccc2)C1=O (stereo not drawn) , thanks.
Reply: > 100 µM (inactive)

Ask: Let me know recorded GI50 for C[C@]12CCC(=O)C=C1CC[C@@H]1C2CC[C@]2(C)Nc3c(ncn3-c3ccc(F)cc3)CC12 (stereo partly drawn) , thanks.
Reply: 19.1 µM (inactive)

Ask: Let me know recorded GI50 for C[N+]1(C)CCCC(C#N)(c2ccccc2)CC1 (stereo not drawn) , thanks.
Reply: > 100 µM (inactive)

Ask: Let me know recorded GI50 for C=CCNC1=C2C[C@@H](C)C[C@@H](OC)C(OC(=O)CCCN(C)C)[C@H](C)/C=C(\C)[C@@H](OC(N)=O)[C@H](OC)/C=C\C=C(/C)C(=O)NC(=CC1=O)C2=O (stereo partly drawn) , thanks.
Reply: 12.6 µM (inactive)

Ask: Let me know recorded GI50 for CN(C)CCN(C)C(=O)C1CCCN1C(=O)OCc1ccccc1 (stereo not drawn) , thanks.
Reply: > 100 µM (inactive)

Further cases:
Ask: Let me know recorded GI50 for `Cc1oc2c(C)c(O)c3c(c2c1C1(C)OCCO1)C(=O)C=C(Cl)C3=O` , thanks.
Reply: > 100 µM (inactive)

Ask: Let me know recorded GI50 for C=C1C(OC2O[C@@H]3O[C@@]4(C)CC[C@H]5[C@H](C)CC[C@@H](C2=C)[C@@]35O4)O[C@@H]2O[C@@]3(C)CC[C@H]4[C@H](C)CC[C@@H]1[C@@]24O3 (stereo partly drawn) , thanks.
Reply: > 50 µM (inactive)

Ask: Let me know recorded GI50 for N#CC12Cc3cc4c(cc3-c3cccc(c31)CCN2C(=O)c1ccccc1)OCO4 (stereo not drawn) , thanks.
Reply: > 100 µM (inactive)

====

- Tested on: SN12C
- protocol.notes: NCI tumour cell line growth inhibition, 48 h
Calls of active or inactive are those of the source. Cut-off read from the data, not from the text of the source: active = GI50 up to about 1.1 µM and inactive = higher. Bridge positions count the residues as written; N and C are the ends. Square brackets hold non-standard residues; d marks the D form. Peptide text beside a SMILES is read from it. * marks the point of attachment. Cya = N[CH](CS(=O)(=O)O)C(=O)O; X49 = CC(C)CCCCCCCC(O)CC(=O)*; GABA = NCCCC(=O)O
test.readout: GI50

Answered cases to consult:
Ask: Let me know recorded GI50 for `CN(C)c1ccc(-c2cc(O)c3ccccc3n2)cc1` , thanks.
Reply: > 100 µM (inactive)

Ask: Let me know recorded GI50 for `Cc1nc(C)c(N2CCN(CN)CC2)c(O)n1` , thanks.
Reply: > 100 µM (inactive)

Ask: Let me know recorded GI50 for CNC(=O)SCC(NC(=O)CCC(N)C(=O)O)C(=O)NCC(=O)O (centres undefined) , thanks.
Reply: > 89.7 µM (inactive)

Ask: Let me know recorded GI50 for O=C1NC(=O)/C(=N\c2cccc3c(=O)[nH][nH]c(=O)c23)C(c2nc3ccccc3s2)C1=O (centres undefined) , thanks.
Reply: > 100 µM (inactive)

Ask: Let me know recorded GI50 for `N#Cc1c(O)cc(=O)n2c1[nH]c1ccccc12` , thanks.
Reply: > 100 µM (inactive)

Ask: Let me know recorded GI50 for `Cn1ccnc1SC(F)(F)c1nc2ccccc2o1` , thanks.
Reply: > 100 µM (inactive)

Further cases:
Ask: Let me know recorded GI50 for `Cc1cc(S(=O)(=O)Nc2nc(N)n(-c3ccccc3)n2)c(S)cc1Cl` , thanks.
Reply: > 100 µM (inactive)

Ask: Let me know recorded GI50 for CC(C)=Cc1cc2c(cc1O)CCC1C2CC[C@@]2(C)C1CC[C@@H]2O (some centres undefined) , thanks.
Reply: 14.7 µM (inactive)

Ask: Let me know recorded GI50 for CCCCCCCCP(=O)(O)OP(=O)(O)OCC1OC(n2ccc(N)nc2=O)C(O)C1O (centres undefined) , thanks.
Reply: > 100 µM (inactive)

Ask: Let me know recorded GI50 for CC(C)CCCCCCCC(O)CC(=O)NC(CS(=O)(=O)O)C(=O)NC(CC(C)C)C(=O)NCCCC(=O)NC(Cc1c[nH]cn1)C(=O)NC(C)C(=O)NC1C(=O)NC(C(C)O)C(=O)NC(Cc2c[nH]cn2)C(=O)NC(C)C(=O)NC(C(C)O)C(=O)OC1C (centres undefined) (X49-[Cya]L[GABA]HATTHAT; ester 6-C; configuration not given here) , thanks.
Reply: > 25 µM (inactive)

Ask: Let me know recorded GI50 for `O=C(/C=C/c1ccc(Cl)cc1)c1ccc(Cl)s1` , thanks.
Reply: > 100 µM (inactive)
